Measured Ratio, listed per entry for reference.
# Test: Ratio of inhibition of cyclin dependant kinase 2-cyclin E to that of cyclin-dependent kinase 5
Assay Endpoint: Ratio

chemical_string=Cc1cc2ncn(CC(=O)Nc3ncc(C4CCC4)s3)c2cc1C assay_endpoint=Ratio numeric_result=2.2
chemical_string=CSc1cnc(NC(=O)Cc2ccccc2)s1 assay_endpoint=Ratio numeric_result=1.2
chemical_string=O=C(Nc1ccccc1)Nc1ncc(C2CCC2)s1 assay_endpoint=Ratio numeric_result=1.6
chemical_string=O=C(Nc1ccc2cnccc2c1)Nc1ncc(C2CCC2)s1 assay_endpoint=Ratio numeric_result=4
chemical_string=O=C(Cc1ccc2ncccc2c1)Nc1ncc(C2CCC2)s1 assay_endpoint=Ratio numeric_result=2.6

The reported measurements were obtained from ChEMBL document CHEMBL1138018.
